Values compiled from ChEMBL document CHEMBL4385606.

# Lookup of reported pIC50 keyed by entry
target: CDK9/cyclin T1 (Homo sapiens, UniProt P50750); test: Inhibition of recombinant human N-terminal GST-His6-fused CDK9 (M1 to F372 residues)/N-terminal His6-tagged cyclin T1 (M1 to K726 residues) expressed in baculovirus infected Sf9 insect cells using (YSPTSPS)2KK as substrate measured in presence of [gamma-33P]ATP
Sequence (O60563 whole entry, the tested form may be a part): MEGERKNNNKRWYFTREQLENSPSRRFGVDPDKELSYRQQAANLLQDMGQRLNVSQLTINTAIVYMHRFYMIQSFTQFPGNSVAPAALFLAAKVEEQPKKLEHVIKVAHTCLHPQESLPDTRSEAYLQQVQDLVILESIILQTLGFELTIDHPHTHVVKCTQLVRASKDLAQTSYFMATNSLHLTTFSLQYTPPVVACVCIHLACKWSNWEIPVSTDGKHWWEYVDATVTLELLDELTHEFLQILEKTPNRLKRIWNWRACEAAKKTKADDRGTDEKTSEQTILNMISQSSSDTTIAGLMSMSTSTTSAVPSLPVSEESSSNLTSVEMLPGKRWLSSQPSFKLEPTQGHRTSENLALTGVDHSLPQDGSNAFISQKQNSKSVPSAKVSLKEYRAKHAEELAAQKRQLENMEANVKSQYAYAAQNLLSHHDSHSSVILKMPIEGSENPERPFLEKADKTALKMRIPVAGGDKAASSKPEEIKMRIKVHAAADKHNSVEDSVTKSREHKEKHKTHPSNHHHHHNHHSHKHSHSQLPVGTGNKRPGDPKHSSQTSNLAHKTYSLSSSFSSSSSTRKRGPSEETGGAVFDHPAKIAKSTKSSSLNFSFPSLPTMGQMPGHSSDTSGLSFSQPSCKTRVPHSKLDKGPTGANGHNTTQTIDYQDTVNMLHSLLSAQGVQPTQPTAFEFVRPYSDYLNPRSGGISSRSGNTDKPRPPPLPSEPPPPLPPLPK
Sequence (P50750 whole entry, the tested form may be a part): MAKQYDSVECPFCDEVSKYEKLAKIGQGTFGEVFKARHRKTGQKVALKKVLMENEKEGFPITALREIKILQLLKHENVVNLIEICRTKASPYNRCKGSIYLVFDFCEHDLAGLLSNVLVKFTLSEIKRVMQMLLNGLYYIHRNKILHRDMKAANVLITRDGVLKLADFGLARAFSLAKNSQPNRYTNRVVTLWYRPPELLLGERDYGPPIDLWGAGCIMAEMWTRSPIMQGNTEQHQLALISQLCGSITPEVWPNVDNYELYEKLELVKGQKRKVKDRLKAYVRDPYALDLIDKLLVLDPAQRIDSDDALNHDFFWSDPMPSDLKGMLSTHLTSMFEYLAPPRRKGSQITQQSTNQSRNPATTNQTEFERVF
Scale note: pIC50 = -log10(concentration in M).

1) CC(C)c1n[nH]c2c(NCc3ccc(-c4ccccn4)cc3)nc(SCCN)nc12 = 7.60

Moving on to another compound below.
Request: Recorded pIC50 of CC[C@H](CO)Nc1nc(NCc2ccc(-c3ccccn3)cc2)c2ncn(C(C)C)c2n1 , please.
Response: 6.57
